- Tested on: PPARg:RXRa 90nM:30nM, anti-RXR (NR concentration 90 nM, RXRa partner concentration 30 nM)
- PROCEDURE_SUMMARY: PBM binding z-score (relative to random genomic background probes); higher = stronger binding; sequences stand for … in GC…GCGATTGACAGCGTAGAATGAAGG
MEASURE: PBM binding z-score

In [3]: df
Out[3]:
                     sequence_content              measure  measured
0  TCTTGTAGATCAACATGAGGTTAAGAAAGATCGA  PBM binding z-score      2.31
1  ATATGTAGGTTACATCCGGGTCATTAAGGCTATG  PBM binding z-score      4.28
2  TCATATAGTTAAAGGTGAAAGTCGAACGATATGA  PBM binding z-score      3.79
3  CCTTACGGCTCAAGGTTATAGCACGGGTGGTACG  PBM binding z-score     0.076
4  ATCTCTAGGTTACAAGTTCAGTGAAAGAGAGGAC  PBM binding z-score      2.97
5  TCTAGTTGGTCACGGAGGTAACACACGACGGGTA  PBM binding z-score      2.25

###

- System: PPARg:RXRa 270nM:90nM, anti-RXR (NR concentration 270 nM, RXRa partner concentration 90 nM)
- PROCEDURE_SUMMARY: PBM binding z-score (relative to random genomic background probes); higher = stronger binding; sequences stand for … in GC…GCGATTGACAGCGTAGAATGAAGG
Lab note: class by PBM binding z-score, see class 1: < 0.9; class 2: ≥ 0.9 and < 4; class 3: ≥ 4

>>> df
                      sequence_content  class_label
 0  CGAACTAGGTCATTTACAGGACAGTGAATAGTAA      class 3
 1  CCTTTTAGTTGACCATAAGGGCAACCGAAGCTCG      class 1
 2  TCTGACAGGTGAAGGTAACTCAGGTACGCAGTCG      class 2
 3  TAGCCTAGGTCAGATCGGGCCAGTATCCGCTATA      class 1
 4  TAGCCTAGGTCATTCAGGGGCCAGTATCGAAAGC      class 2
 5  TCTAGTTGGTCACGGAGGTCAAACACGACGGGTA      class 3
 6  ATCTCGAGGTAAAAGTTCAGTGAATCCCGAGGAT      class 3
 7  ATCGAAAGGTCCTGAGGTGAGTATACAGAAAGGC      class 1
 8  CAAACTGGGTCACGAAAGGTCAAAGTCGAATGAC      class 3
 9  CAAACTAAGTCACAGAGGTCAAAGTCCGTGCGTA      class 3
10  CCGACTGTGGCAAAGGTTACCATACTCAGTACGA      class 3
11  TCAGACAGGTGAAGGTAACCCAGGTACGCAGTCG      class 2
12  CCTATTAGTTGACCATAAGGGCAACAGAAGCTCG      class 1
13  CAAACTAGGTCACGAAAGGTCCAAGTCGAATGAC      class 3
14  TCTATTAGTTGAAGGGCAACAGACGAGTCCGTTT      class 2
15  CTCGAACGGTCGGTTGAGGTGAGTATACGGATAA      class 1
16  CGAACTAGGTCGTTGACAGGACAGTGAATAGTAA      class 2
17  ACTATTAGTAGACTTAGGGCAACCGATACGACGC      class 1
18  CAAACTAGGTCGCAGAGGTCAAAGTCCGTGCGTA      class 3
19  ACAGACACGTGAGTGAAGGTAACTCAGCTGGACG      class 1
20  GCTATTAGTTGAAAGGGAAACCGAATGATTCTCG      class 2
21  TAGCCTAGGTAATTGGGCCAGTATAGTACGCATC      class 1
22  TCTAGTTGGTCACGGAGGTCGCACACGACGGGTA      class 2
23  CCGACTGGGGCAAAGGTTACCATACTCAGTACGA      class 3
24  ATCGAAAGGTCGAAGATGAGTATACCCACCCGAA      class 2

Each recorded value in this set is attributed to the supplement of paper PMC6555819.
